Molecular target: T1, human cholecystokinin-2 receptor (human, UniProt P32239 1-447)
T1 sequence (looked up): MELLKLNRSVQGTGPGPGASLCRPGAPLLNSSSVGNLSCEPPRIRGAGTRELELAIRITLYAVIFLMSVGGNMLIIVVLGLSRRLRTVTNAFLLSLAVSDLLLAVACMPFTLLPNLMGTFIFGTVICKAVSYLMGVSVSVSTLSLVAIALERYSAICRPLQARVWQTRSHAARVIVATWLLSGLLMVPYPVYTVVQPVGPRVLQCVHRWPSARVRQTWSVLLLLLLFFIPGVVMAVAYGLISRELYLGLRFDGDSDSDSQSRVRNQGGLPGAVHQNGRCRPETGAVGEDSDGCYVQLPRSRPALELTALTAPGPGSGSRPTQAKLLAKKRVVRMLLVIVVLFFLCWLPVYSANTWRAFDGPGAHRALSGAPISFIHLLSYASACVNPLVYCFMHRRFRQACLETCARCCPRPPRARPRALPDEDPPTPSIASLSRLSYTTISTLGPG
Test: cell-based or functional assay
Starred links: 1 amine or outer side, 2 acyl side, 3 side chain; linkers in the order of their positions; H or OH if unused. Non-standard residues stand in square brackets, D forms with d. No end group written: not given here. *: point of attachment. C20 diacid = O=C(O)CCCCCCCCCCCCCCCCCCC(=O)*; sY = N[C@@H](Cc1ccc(OS(=O)(=O)O)cc1)C(=O)O; C18 diacid = O=C(O)CCCCCCCCCCCCCCCCC(=O)*; γGlu = O=C(O)[C@H](CCC(=O)[*:2])N[*:1]; NMeF = CN[C@@H](Cc1ccccc1)C(=O)O; dNMeD = CN[C@H](CC(=O)O)C(=O)O; Nle = CCCC[C@H](N)C(=O)O; AEEA = NCCOCCOCC(=O)O
measureName: EC50 (CCK-2R) (nM)
Respond numerically; units are nM and should not be typed.

binder	EC50 (CCK-2R) / nM
D[sY]RGW[Nle][dNMeD][NMeF]-NH2 (X = Nle or Nal) [Asp-sTyr-Arg-Gly-Trp-Nle-DMeAsp-MePhe-amide]	910
{C20 diacid-γGlu-AEEA-AEEA}-E[sY]LGW[Nle][dNMeD][NMeF]-NH2 (SMILES CCCC[C@H](NC(=O)[C@H](Cc1c[nH]c2ccccc12)NC(=O)CNC(=O)[C@H](CC(C)C)NC(=O)[C@H](Cc1ccc(OS(=O)(=O)O)cc1)NC(=O)[C@H](CCC(=O)O)NC(=O)COCCOCCNC(=O)COCCOCCNC(=O)CC[C@H](NC(=O)CCCCCCCCCCCCCCCCCCC(=O)O)C(=O)O)C(=O)N(C)[C@H](CC(=O)O)C(=O)N(C)[C@@H](Cc1ccccc1)C(N)=O, X = Nle or Nal)	32
{C18 diacid-γGlu-AEEA-AEEA}-D[sY]AGW[Nle][dNMeD][NMeF]-NH2 (SMILES CCCC[C@H](NC(=O)[C@H](Cc1c[nH]c2ccccc12)NC(=O)CNC(=O)[C@H](C)NC(=O)[C@H](Cc1ccc(OS(=O)(=O)O)cc1)NC(=O)[C@H](CC(=O)O)NC(=O)COCCOCCNC(=O)COCCOCCNC(=O)CC[C@H](NC(=O)CCCCCCCCCCCCCCCCC(=O)O)C(=O)O)C(=O)N(C)[C@H](CC(=O)O)C(=O)N(C)[C@@H](Cc1ccccc1)C(N)=O, X = Nle or Nal)	97

Now for the binder whose EC50 (CCK-2R) we want.
Value lookup for EC50 (CCK-2R); key = {C18 diacid-γGlu-AEEA-AEEA}-E[sY]LGW[Nle][dNMeD]F-NH2 (SMILES CCCC[C@H](NC(=O)[C@H](Cc1c[nH]c2ccccc12)NC(=O)CNC(=O)[C@H](CC(C)C)NC(=O)[C@H](Cc1ccc(OS(=O)(=O)O)cc1)NC(=O)[C@H](CCC(=O)O)NC(=O)COCCOCCNC(=O)COCCOCCNC(=O)CC[C@H](NC(=O)CCCCCCCCCCCCCCCCC(=O)O)C(=O)O)C(=O)N(C)[C@H](CC(=O)O)C(=O)N[C@@H](Cc1ccccc1)C(N)=O, X = Nle or Nal)
94
